The reported measurements were obtained from patent US20170081400A1.

experimental_target: T1, human TL1A extracellular domain with N-terminal HIS and FLAG tag (human) (UniProt O95150)
T1 sequence: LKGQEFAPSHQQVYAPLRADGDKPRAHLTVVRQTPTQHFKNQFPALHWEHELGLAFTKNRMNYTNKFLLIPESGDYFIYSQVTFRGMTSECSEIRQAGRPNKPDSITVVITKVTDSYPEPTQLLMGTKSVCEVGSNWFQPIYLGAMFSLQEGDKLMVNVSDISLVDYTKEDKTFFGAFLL
procedure_summary: cell-based or functional assay
Known Fold improvement over 320-179, TL1A induced caspase potency assay in TF-1 cells of a selection of binders
Answer in fold, number only, no unit symbol.

// below: answered binders
320-443 (antibody, human IgG1, name in Kabat numbering, V domains shown, human IgG1, lambda) VH: QVQLVQSGAEVKKPGASVKVSCKASGYTFTSKDINWVRQAPGQGLEWMGWLNPNSGNTGYAQKFQGRVTMTADRSTSTAYMELSSLRSEDTAVYYCAREVPETAAFEYWGQGTLVTVSS VL: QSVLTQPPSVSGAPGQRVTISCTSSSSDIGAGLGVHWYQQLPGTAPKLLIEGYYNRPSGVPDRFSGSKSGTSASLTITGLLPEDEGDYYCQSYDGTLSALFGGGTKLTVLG : 1
320-245 (antibody, human IgG1, name in Kabat numbering, V domains shown, human IgG1, lambda) VH: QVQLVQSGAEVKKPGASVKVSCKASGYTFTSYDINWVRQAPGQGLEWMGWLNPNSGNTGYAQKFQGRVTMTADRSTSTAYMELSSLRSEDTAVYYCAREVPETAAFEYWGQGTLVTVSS VL: QSVLTQPPSVSGAPGQRVTISCTSSSSDHGAGLGVHWYQQLPGTAPKLLIEGYYNRPSGVPDRFSGSKSGTSASLTITGLLPEDEGDYYCQSYDGTLSALFGGGTKLTVLG : 0

As a next step, examine the binder that follows.
-- ask Form field: reported Fold improvement over 320-179, TL1A induced caspase potency assay in TF-1 cells of 320-188 (antibody, human IgG1, name in Kabat numbering, V domains shown, human IgG1, lambda) VH: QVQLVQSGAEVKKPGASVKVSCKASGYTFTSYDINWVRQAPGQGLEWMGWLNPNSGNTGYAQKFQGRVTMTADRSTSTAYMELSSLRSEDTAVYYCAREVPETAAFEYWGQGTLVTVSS VL: QSVLTQPPSVSGAPGQRVTISCTSSSSDIGAGLGVHWYQQLPGTAPKLLIEGYYNRPSGVPDRFSGSKSGTSASLTITGLHPEDEGDYYCQSYDGTLSALFGGGTKLTVLG
-- reply 4
